Target: Prostaglandin G/H synthase 1 (Homo sapiens, UniProt P23219)
Sequence (P23219 whole entry): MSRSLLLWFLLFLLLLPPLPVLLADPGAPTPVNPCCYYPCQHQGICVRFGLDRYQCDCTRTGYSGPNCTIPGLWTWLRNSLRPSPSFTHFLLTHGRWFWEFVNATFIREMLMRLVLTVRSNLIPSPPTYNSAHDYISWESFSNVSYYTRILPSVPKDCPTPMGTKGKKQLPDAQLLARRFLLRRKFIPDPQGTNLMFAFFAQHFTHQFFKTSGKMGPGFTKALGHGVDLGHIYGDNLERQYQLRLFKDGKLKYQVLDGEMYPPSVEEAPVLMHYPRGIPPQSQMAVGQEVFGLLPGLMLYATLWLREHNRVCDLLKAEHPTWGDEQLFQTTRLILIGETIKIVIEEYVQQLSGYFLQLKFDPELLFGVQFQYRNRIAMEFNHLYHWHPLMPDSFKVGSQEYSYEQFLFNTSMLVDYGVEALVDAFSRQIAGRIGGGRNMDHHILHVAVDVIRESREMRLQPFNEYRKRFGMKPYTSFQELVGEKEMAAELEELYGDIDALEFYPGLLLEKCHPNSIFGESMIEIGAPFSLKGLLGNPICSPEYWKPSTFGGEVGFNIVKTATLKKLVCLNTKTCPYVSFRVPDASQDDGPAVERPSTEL
test readout: IC50

molecule=COC(=O)c1ccc(-n2c(C)ccc2-c2ccc(F)cc2)cc1 recorded_result="Not Active"
molecule=CC(=O)c1ccc(-n2c(C)ccc2-c2ccc(F)cc2)cc1 recorded_result="Not Active"
molecule="Cc1ccc(-c2ccc(F)cc2)n1-c1ccc([S+](C)[O-])cc1 (centres undefined)" recorded_result="Not Active"
molecule=COc1ccc(-c2ccc(C)n2-c2ccc(C(C)=O)cc2)cc1 recorded_result="Not Active"

====

Organism: Homo sapiens
Experiment: tissue or blood
test readout: pIC50
Answer as the number alone; pIC50 is minus log10 of concentration in mol/L.

Ask: Fill in the blank: the reported pIC50 of `COc1ccc(-c2ccc(CCC(=O)O)n2-c2ccc(C(C)=O)cc2)cc1` is ____.
Reply: 6.52

Value source: ChEMBL document CHEMBL1130038
